- TEST DETAILS: yeast proliferation inhibition, dose response, BY4741, OD595, 24 h (AID 489042)
- CONDITION LABEL: S. cerevisiae BY4741 growth
Active and inactive are the calls of the source. No stated cut-off is given here; in the data, active means inhibition score above about 11; inactive means the rest.
Lab note: assign the record to one of active, inactive

See these solved cases before continuing.
>  <COMPOUND>
C/C(=N\Nc1ncnc2sc(C)c(C)c12)c1ccccn1

>  <CLASS>
active

$$$$
>  <COMPOUND>
O=C(OCc1c(F)cccc1Cl)c1cnc2ccccc2n1

>  <CLASS>
inactive

$$$$
>  <COMPOUND>
c1ccc2[nH]c3cc4ncnc4cc3nc2c1

>  <CLASS>
inactive

$$$$
>  <COMPOUND>
COc1ccc2c3c(cccc13)N(C)N=C2C

>  <CLASS>
inactive

$$$$

In this assay, the call recorded for N#CC(c1nc2ccccc2nc1N1CCCC1)S(=O)(=O)c1ccccc1 (stereo unspecified) was what?
inactive

Try this compound too: `COc1ccc2nc3ccccc3nc2c1NC(=O)c1ccccc1Cl`
inactive

###

- TEST DETAILS: yeast proliferation inhibition, dose response, BY4741, OD595, 24 h (AID 489042)
- CONDITION LABEL: S. cerevisiae BY4741 growth
Active and inactive are the calls of the source. No stated cut-off is given here; in the data, active means inhibition score above about 11; inactive means the rest.
Lab note: assign the record to one of yes (1) = active, no (0) = inactive

Take a look at these entries with their results.
>  <COMPOUND>
c1ccc2nc3ccccc3nc2c1

>  <CLASS>
yes (1)

$$$$
>  <COMPOUND>
O=C(Nc1ccc2nc3ccccc3nc2c1)c1ccc(Br)cc1

>  <CLASS>
no (0)

$$$$
>  <COMPOUND>
CNC(=O)c1cccc2nc3ccccc3nc12

>  <CLASS>
yes (1)

$$$$
>  <COMPOUND>
CSc1nnc(-c2ccc([N+](=O)[O-])cc2)o1

>  <CLASS>
no (0)

$$$$

Record request — test call for CCC(=Nc1ccccc1O)C1=C(O)CC(c2ccccc2)CC1=O (stereo not given)
no (0)

Item: `Cc1ccc(-c2nn(C(C)(C)C)c3ncnc(N)c23)cc1`
yes (1)

Follow-up item: `O=C(CN1CCN(c2ccccn2)CC1)Nc1ccccc1F`
no (0)

Okay, and COc1ccc2cc(C3CC(c4ccco4)=NN3S(=O)(=O)c3ccccc3)c(Cl)nc2c1 (stereo not given) ?
no (0)

Next record, please: `FC(F)(F)c1nc2cc3nc4ccccc4[nH]c3cc2n1`
no (0)

Also, `CC(C)OC(=O)CSc1nnc(-c2ccc(Cl)cc2Cl)o1` please.
no (0)

Same question, `CC(C)CSc1nnc2c3ccccc3n(C)c2n1` this time
no (0)

Repeat for the following compound: `C=CCSc1nnc(-c2ccc([N+](=O)[O-])cc2)o1`
no (0)

###

- TEST DETAILS: yeast proliferation inhibition, dose response, BY4741, OD595, 24 h (AID 489042)
- CONDITION LABEL: S. cerevisiae BY4741 growth
Calls of active or inactive are those of the source. No stated cut-off is given here; in the data, active means inhibition score above about 11; inactive means the rest.
Write down one outcome, taken from class 1 = active, class 0 = inactive

Below are worked cases with known answers.
>  <MOLECULE>
C[C@@]12C(=O)OC(=O)[C@]1(C)C1CCC2O1

>  <CLASS>
class 1

$$$$
>  <MOLECULE>
CCN(CC)C(=O)c1ccc2nc3ccccc3nc2c1

>  <CLASS>
class 0

$$$$
>  <MOLECULE>
CC(C)(C)n1nc(-c2ccc(Cl)cc2)c2c(N)ncnc21

>  <CLASS>
class 1

$$$$
>  <MOLECULE>
Cc1cc2nc3ccc(N(C)C)cc3nc2cc1N

>  <CLASS>
class 0

$$$$
>  <MOLECULE>
O=C(Nc1ccc2nc3ccccc3nc2c1)c1ccccc1

>  <CLASS>
class 1

$$$$

Would you mind telling me which call this test gave `[O-][n+]1c2ccccc2[n+]([O-])c2cc(O)ccc21` ?
class 0

Now the same for `NC(=O)CSc1nnc(-c2ccc([N+](=O)[O-])cc2)o1`
class 0

Now the molecule COC(=O)c1cccc2nc3c(C(C)O)cccc3nc12 (stereo not drawn)
class 0

For `CN(C)CCNc1ncnc2c1cnn2-c1ccc(Cl)cc1` then?
class 0

What do you have for `Cc1cccc2nc3ccccc3nc12` ?
class 0

And the next one, `O=C(/C=C/c1cccs1)NC(=S)NNC(=O)Cc1cccs1` ?
class 1

Try the molecule `C=CCOn1c(=O)c(-c2cccs2)[n+]([O-])c2ccccc21`
class 0

Lookup `CSc1nnc2c3cc(F)ccc3n(C)c2n1`
class 1

Follow-up entry: `CCN(CC)C(=O)CSc1nnc(-c2cccc(OC)c2)o1`
class 0

What do you get for `CCc1nc(NC(C)(C)C)c2cnn(-c3ccccc3)c2n1` ?
class 0

Okay, and `N#CCc1nn(-c2ccccc2)c2ncnc(N)c12` ?
class 0

Please answer likewise for CCCCCNC(=O)C(=O)C1C(=O)Nc2ccccc21 (stereo not drawn)
class 0
